target: human FSH receptor (Homo sapiens); construct: host or cells: CHO-K1 (CHO FSH-R 6CRE-Luc, 1D7 cells); experiment: FSH receptor-dependent CRE-luciferase reporter gene assay (CHO FSH-R 6CRE-Luc, 1D7 cells); format: cell-based; conditions: dose-response format in presence of EC50 of purified human FSH
reported.endpoint: IC50 (µM)
Just the number please, in µM, no unit attached.

Examples with answers:
> print(dat)
                              record.smiles                 measurement.target  value.unit  reported.measurement
1  COc1ccccc1-c1ccc(C(=O)N2Cc3ccc(C(=O)NCc4cc(C)on4)n3Cc3ccccc32)cc1  human FSH receptor (Homo sapiens)          µM                  10.2
2  COc1ccccc1-c1ccc(C(=O)N2Cc3ccc(C(=O)NCc4cc(C)oc4C)n3Cc3ccccc32)cc1  human FSH receptor (Homo sapiens)          µM                   3.3

Please turn your attention to the following entry.
# IC50 (molecule: COc1ccccc1-c1ccc(C(=O)N2Cc3ccc(C(=O)NCc4cccn4C)n3Cc3ccccc32)cc1 ) is 42.6

----------
Entries and their measured melting point follow.

Some compounds with recorded melting point:
> print(dat)
                                   compound  reported.measurement
1  COc1ccccc1-c1ccc(C(=O)N2Cc3ccc(C(=O)NCC4CN(Cc5ccccc5)CCO4)n3Cc3ccccc32)cc1 (stereo not shown)         180 to 182 °C
2  COc1ccc(-c2nc(CNC(=O)c3ccc4n3Cc3ccccc3N(C(=O)c3ccc(-c5ccccc5C)c(C)c3)C4)no2)cc1         133 to 135 °C
3  COc1ccccc1-c1ccc(C(=O)N2Cc3ccc(C(=O)NCc4cccn4C)n3Cc3ccccc32)cc1         148 to 150 °C
4  COc1ccccc1-c1ccc(C(=O)N2Cc3ccc(C(=O)NCc4cc(C)on4)n3Cc3ccccc32)cc1         111 to 113 °C
5  Cc1cc(CNC(=O)c2ccc3n2Cc2ccccc2N(C(=O)c2ccc(-c4c(C)cccc4C)c(C)c2)C3)no1         233 to 234 °C
6  Cc1cc(C(=O)N2Cc3ccc(C(=O)NCc4cccn4C)n3Cc3ccccc32)ccc1-c1c(C)cccc1C         222 to 224 °C

Now turn to the next compound.
melting point in this record for Cc1ccccc1-c1ccc(C(=O)N2Cc3ccc(C(=O)NCc4csc(-c5ccc(Cl)cc5)n4)n3Cc3ccccc32)cc1C : 198 to 201 °C

----------
molecular target: hFSH-R (Homo sapiens, UniProt P23945); experiment: cAMP accumulation (RIA) in CHO-3D2 cells (hFSH-R), hFSH-induced
Sequence (P23945 18-695): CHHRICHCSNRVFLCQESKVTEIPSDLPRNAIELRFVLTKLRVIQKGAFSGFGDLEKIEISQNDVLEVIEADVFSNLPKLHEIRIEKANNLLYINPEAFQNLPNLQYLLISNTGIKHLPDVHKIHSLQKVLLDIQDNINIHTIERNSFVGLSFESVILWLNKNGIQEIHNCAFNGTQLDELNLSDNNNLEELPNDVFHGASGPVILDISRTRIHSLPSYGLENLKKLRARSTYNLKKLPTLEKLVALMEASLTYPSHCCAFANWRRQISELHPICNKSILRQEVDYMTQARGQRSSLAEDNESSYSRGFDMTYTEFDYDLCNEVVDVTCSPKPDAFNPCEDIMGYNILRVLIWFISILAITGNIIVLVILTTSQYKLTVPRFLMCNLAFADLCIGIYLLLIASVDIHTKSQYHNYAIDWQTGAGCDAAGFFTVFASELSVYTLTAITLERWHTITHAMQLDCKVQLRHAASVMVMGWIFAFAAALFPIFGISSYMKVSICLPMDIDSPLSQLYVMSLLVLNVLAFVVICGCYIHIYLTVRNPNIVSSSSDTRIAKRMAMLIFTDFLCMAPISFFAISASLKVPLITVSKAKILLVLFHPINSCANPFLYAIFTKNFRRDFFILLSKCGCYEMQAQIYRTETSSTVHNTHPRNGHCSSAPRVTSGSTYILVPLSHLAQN
Documented pIC50 across a set of molecules
Note: pIC50 values are expressed as the negative base-10 logarithm of concentration in M.

> print(dat)
                              record.smiles  reported.endpoint  reported.measurement
1  COc1ccccc1-c1ccc(C(=O)N2Cc3ccc(C(=O)NCc4cccn4C)n3Cc3ccccc32)cc1              pIC50                  5.92
2  COc1ccccc1-c1ccc(C(=O)N2Cc3ccc(C(=O)NCc4cc(C)on4)n3Cc3ccccc32)cc1              pIC50                  6.22

Record COc1ccccc1-c1ccc(C(=O)N2Cc3ccc(C(=O)NCc4cc(C)oc4C)n3Cc3ccccc32)cc1 , field pIC50: 6.52

----------
target: human FSH receptor (Homo sapiens, UniProt P23945); assay: FSH receptor-dependent CRE-luciferase reporter gene assay (CHO FSH-R 6CRE-Luc, 1D7 cells); settings: dose-response format in presence of EC50 of purified human FSH
Listing of entries alongside the reported IC50.

Below are worked cases with known answers.
> print(dat)
                                   compound  reported.measurement
1  Cc1cc(C(=O)N2Cc3ccc(C(=O)NCc4cccn4C)n3Cc3ccccc32)ccc1-c1c(C)cccc1C               > 30 µM
2  Cc1ccccc1-c1ccc(C(=O)N2Cc3ccc(C(=O)NCC4CCCNC4)n3Cc3ccccc32)cc1C (stereo not drawn)               > 30 µM

Briefly, IC50 measured for Cc1cc(CNC(=O)c2ccc3n2Cc2ccccc2N(C(=O)c2ccc(-c4c(C)cccc4C)c(C)c2)C3)no1 : > 30 µM
